Each recorded value in this set is attributed to patent US7420001B2.

target: UniProt:P39900; test: In vitro fluorescence assay of MMP-12 activity; conditions: recombinant human MMP-12
Sequence (P39900 106-280 limits assumed): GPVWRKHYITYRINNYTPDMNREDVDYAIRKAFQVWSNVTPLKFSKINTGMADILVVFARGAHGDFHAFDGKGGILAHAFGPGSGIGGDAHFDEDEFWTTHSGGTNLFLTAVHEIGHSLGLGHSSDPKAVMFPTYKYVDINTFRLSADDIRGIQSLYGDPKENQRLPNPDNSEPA
readout-name: pIC50
// pIC50 is dimensionless: -log10 of concentration (M)

Below are worked cases with known answers.
Cc1c(C(=O)Nc2ccc(-c3ccc(S(=O)(=O)N[C@H](C(=O)O)C(C)C)cc3)cc2)oc2cccc(Oc3ccccc3)c12 | 6.29
CC(C)[C@@H](NS(=O)(=O)c1ccc(-c2ccc(C[S+]([O-])c3cc4ccccc4o3)cc2)cc1)C(=O)O (stereo partly drawn) | 8.34
COCC#Cc1cccc2oc(C(=O)Nc3ccc(-c4ccc(S(=O)(=O)N[C@H](C(=O)O)C(C)C)cc4)cc3)c(C)c12 | 6.86
Cc1nn(C)c2sc(C(=O)Nc3ccc(-c4ccc(S(=O)(=O)N[C@H](C(=O)O)C(C)C)cc4)cc3)cc12 | 7.29
CC(=O)Nc1cccc2oc(C(=O)Nc3ccc(-c4ccc(S(=O)(=O)N[C@H](C(=O)O)C(C)C)cc4)cc3)c(C)c12 | 6.65
CC#Cc1cccc2oc(C(=O)Nc3ccc(-c4ccc(S(=O)(=O)N[C@H](C(=O)O)C(C)C)cc4)cc3)c(C)c12 | 6.76
COc1c(Br)ccc2oc(COc3ccc(-c4ccc(S(=O)(=O)N[C@@H](C(=O)O)C(C)C)cc4)cc3)c(C)c12 | 7.70
COCCCc1cccc2oc(C(=O)Nc3ccc(-c4ccc(S(=O)(=O)N[C@H](C(=O)O)C(C)C)cc4)cc3)c(C)c12 | 7.07

The measured pIC50 associated with Cc1c(C(=O)Nc2ccc(-c3ccc(S(=O)(=O)N[C@H](C(=O)O)C(C)C)cc3)cc2)oc2cccc(OCC3CC3)c12 reads 6.73

----------
Listed molecules paired with reported IC50
biological target: MMP-13 (Homo sapiens); construct: made in house; assay: In-vitro fluorescence assay of MMP-13 activity; assay type: biochemical; settings: recombinant human catalytic domain of MMP-13; read-out: MMP-13 IC50
Respond numerically; units are nM and should not be typed.

The molecule identified as Cc1c(C(=O)Nc2ccc(-c3ccc(S(=O)(=O)N(C)[C@H](C(=O)O)C(C)C)cc3)cc2)oc2cccc(NS(C)(=O)=O)c12 registered its IC50 at 63

The recorded IC50 for entry CC(=O)Nc1ccc2oc(C(=O)Nc3ccc(-c4ccc(S(=O)(=O)NC(C(=O)O)C(C)C)cc4)cc3)cc2c1 (stereo in doubt) equals 1.3

Sample CC(C)[C@H](NS(=O)(=O)c1ccc(-c2ccc(NC(=O)c3csc(-c4ccncc4)n3)cc2)cc1)C(=O)O ; IC50 observed: 75

So for Cc1c(C(=O)Nc2ccc(-c3ccc(S(=O)(=O)N[C@H](C(=O)O)C(C)C)cc3)cc2)oc2cccc(O)c12 , the logged IC50 turned out to be 6.1

Measured IC50, Cc1c(C(=O)Nc2ccc(-c3ccc(S(=O)(=O)N[C@H](C(=O)O)C(C)C)cc3)cc2)oc2cccc(-c3ccncc3)c12 : 8.5

Kindly note the recorded IC50 for CC(C)[C@H](NS(=O)(=O)c1ccc(-c2ccc(NS(=O)(=O)c3cccs3)cc2)cc1)C(=O)O , which is 2870

For reference, reported IC50 for Cc1c(C(=O)Nc2ccc(-c3ccc(S(=O)(=O)N[C@H](C(=O)O)C(C)C)cc3)cc2)oc2cccc(NS(C)(=O)=O)c12 stands at 11

----------
Listed compounds paired with reported IC50
biological target: MMP-9 (Homo sapiens, UniProt P14780); construct: Active, recombinant human MMP-9 (83 kDa) was purchased from Calbiochem (catalog #PF024); experiment: MMP-9 activity assay; settings: recombinant human MMP-9
Sequence (P14780 107-707 limits assumed): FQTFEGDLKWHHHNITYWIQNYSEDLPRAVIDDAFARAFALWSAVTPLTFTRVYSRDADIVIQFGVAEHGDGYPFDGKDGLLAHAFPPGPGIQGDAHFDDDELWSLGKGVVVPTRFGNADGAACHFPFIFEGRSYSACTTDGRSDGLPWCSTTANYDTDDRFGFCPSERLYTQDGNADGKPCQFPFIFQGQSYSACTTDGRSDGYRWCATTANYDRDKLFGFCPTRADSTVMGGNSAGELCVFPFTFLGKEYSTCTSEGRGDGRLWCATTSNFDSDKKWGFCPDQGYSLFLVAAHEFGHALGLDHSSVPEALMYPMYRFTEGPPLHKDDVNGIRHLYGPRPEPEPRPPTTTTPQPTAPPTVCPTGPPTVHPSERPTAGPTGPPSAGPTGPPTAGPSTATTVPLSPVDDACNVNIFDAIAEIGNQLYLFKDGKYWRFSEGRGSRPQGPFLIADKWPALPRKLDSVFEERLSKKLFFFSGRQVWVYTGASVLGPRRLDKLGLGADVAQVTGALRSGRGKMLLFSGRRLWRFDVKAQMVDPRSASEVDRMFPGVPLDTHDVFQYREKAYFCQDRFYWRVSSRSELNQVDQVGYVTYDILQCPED
# unit: nM | format: bare number

COCCCc1cccc2oc(C(=O)Nc3ccc(-c4ccc(S(=O)(=O)N[C@H](C(=O)O)C(C)C)cc4)cc3)c(C)c12 [Example 30] | 1500

Kindly review the next compound as well.
Note to self: IC50 of CC(C)[C@H](NS(=O)(=O)c1ccc(-c2ccc(NC(=O)c3cc4ccccc4o3)cc2)cc1)C(=O)O [Example 2] with MMP-9 (Homo sapiens, UniProt P14780) was 1100

----------
Biological target: MMP-2 (Homo sapiens, UniProt P08253)
Construct: purchased Oncogene Research Products (Calbiochem) PF023
Sequence (P08253 110-660): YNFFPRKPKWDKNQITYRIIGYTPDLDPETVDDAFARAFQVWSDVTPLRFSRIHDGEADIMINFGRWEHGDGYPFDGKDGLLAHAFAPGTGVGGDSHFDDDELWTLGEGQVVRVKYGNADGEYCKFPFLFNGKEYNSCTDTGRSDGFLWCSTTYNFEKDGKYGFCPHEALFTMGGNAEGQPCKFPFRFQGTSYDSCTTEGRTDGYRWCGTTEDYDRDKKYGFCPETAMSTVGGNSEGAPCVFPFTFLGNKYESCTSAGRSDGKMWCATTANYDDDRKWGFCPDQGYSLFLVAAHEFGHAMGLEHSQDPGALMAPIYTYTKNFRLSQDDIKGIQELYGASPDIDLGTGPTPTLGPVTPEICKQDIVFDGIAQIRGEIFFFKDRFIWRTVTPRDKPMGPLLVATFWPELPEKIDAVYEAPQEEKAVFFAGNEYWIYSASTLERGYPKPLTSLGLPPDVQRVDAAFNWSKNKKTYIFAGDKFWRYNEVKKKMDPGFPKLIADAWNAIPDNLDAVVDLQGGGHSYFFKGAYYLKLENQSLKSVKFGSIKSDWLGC
Assay: In-vitro fluorescence assay of MMP-2 activity
Type: biochemical
Settings: recombinant human MMP-2; read-out: MMP-2 IC50
readout-name: IC50 (µM)
Reply numerically in µM, unit not repeated.

Check out these entries, answers already filled in.
Cc1c(C(=O)Nc2ccc(-c3ccc(S(=O)(=O)N[C@H](C(=O)O)C(C)C)cc3)cc2)oc2cccc(C#CC3CC3)c12 | 3
COc1c(I)ccc2oc(C(=O)Nc3ccc(-c4ccc(S(=O)(=O)N[C@H](C(=O)O)C(C)C)cc4)cc3)c(C)c12 | 1.37
Cc1c(C(=O)Nc2ccc(-c3ccc(S(=O)(=O)N[C@H](C(=O)O)C(C)C)cc3)cc2)oc2cccc(N3CCOCC3)c12 | 1.63
COC(=O)COc1cccc2oc(C(=O)Nc3ccc(-c4ccc(S(=O)(=O)N[C@H](C(=O)O)C(C)C)cc4)cc3)c(C)c12 | 1.84
CC(C)[C@@H](C(=O)O)N(CCN1CCOCC1)S(=O)(=O)c1ccc(-c2ccc(NC(=O)c3cc4ccccc4o3)cc2)cc1 | 0.03

# CCS(=O)(=O)N(C)c1cccc2oc(C(=O)Nc3ccc(-c4ccc(S(=O)(=O)N[C@H](C(=O)O)C(C)C)cc4)cc3)c(C)c12 with MMP-2 (Homo sapiens, UniProt P08253): IC50 is 3.47

Entry CC(C)[C@H](NS(=O)(=O)c1ccc(-c2ccc(NC(=O)c3ccco3)cc2)cc1)C(=O)O , MMP-2 (Homo sapiens, UniProt P08253) data, IC50 value: 0.0057

IC50 of Cc1c(C(=O)Nc2ccc(-c3ccc(S(=O)(=O)N[C@H](C(=O)O)C(C)C)cc3)cc2)oc2cccc(-c3cccc([N+](=O)[O-])c3)c12 , assay on MMP-2 (Homo sapiens, UniProt P08253), is 2.4

IC50 for MMP-2 (Homo sapiens, UniProt P08253) with input CC(C)[C@H](C(=O)O)N(C)S(=O)(=O)c1ccc(-c2ccc(NC(=O)c3cc4ccccc4o3)cc2)cc1 equals 0.006

Short answer on MMP-2 (Homo sapiens, UniProt P08253) for CC(C)[C@H](NS(=O)(=O)c1ccc(-c2ccc(NC(=O)c3cc(-c4ccc(Cl)cc4)no3)cc2)cc1)C(=O)O , IC50: 0.0058

The observed IC50 for C=Cc1cccc2oc(C(=O)Nc3ccc(-c4ccc(S(=O)(=O)N[C@H](C(=O)O)C(C)C)cc4)cc3)c(C)c12 when tested with MMP-2 (Homo sapiens, UniProt P08253) stands at 0.625

Test item CC(C)[C@H](NS(=O)(=O)c1ccc(-c2ccc(NC(=O)c3cc4cc([N+](=O)[O-])ccc4o3)cc2)cc1)C(=O)O ; MMP-2 (Homo sapiens, UniProt P08253); reported IC50 was 0.0033

The measured IC50 that CC(=O)c1cccc2oc(C(=O)Nc3ccc(-c4ccc(S(=O)(=O)N[C@H](C(=O)O)C(C)C)cc4)cc3)c(C)c12 showed for MMP-2 (Homo sapiens, UniProt P08253) is 0.673

----------
The following molecules are listed with their measured pIC50 values.
Target: MMP-2 (Homo sapiens)
Construct: purchased Oncogene Research Products (Calbiochem) PF023
Sequence (P08253 110-660): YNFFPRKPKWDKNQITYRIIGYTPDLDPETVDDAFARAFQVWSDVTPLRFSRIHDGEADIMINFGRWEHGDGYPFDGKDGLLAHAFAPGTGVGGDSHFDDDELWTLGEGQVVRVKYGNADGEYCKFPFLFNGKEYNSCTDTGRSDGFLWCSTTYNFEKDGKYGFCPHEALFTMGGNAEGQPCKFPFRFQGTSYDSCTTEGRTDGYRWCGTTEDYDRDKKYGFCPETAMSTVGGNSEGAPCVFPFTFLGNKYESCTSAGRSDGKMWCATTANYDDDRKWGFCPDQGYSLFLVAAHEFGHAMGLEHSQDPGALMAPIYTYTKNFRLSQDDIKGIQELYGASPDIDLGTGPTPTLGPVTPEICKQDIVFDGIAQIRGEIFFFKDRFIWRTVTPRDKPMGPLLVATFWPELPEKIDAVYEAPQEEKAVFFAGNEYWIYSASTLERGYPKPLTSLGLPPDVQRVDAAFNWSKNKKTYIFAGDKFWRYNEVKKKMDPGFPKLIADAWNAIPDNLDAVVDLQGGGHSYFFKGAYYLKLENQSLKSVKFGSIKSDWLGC
Assay: In-vitro fluorescence assay of MMP-2 activity
Type: biochemical
Settings: recombinant human MMP-2; read-out: MMP-2 IC50
Friendly reminder that pIC50 comes from taking -log10 of the concentration in mol/L.

Worked cases, answers included:
CCc1ccc2oc(C(=O)Nc3ccc(-c4ccc(S(=O)(=O)N[C@H](C(=O)O)C(C)C)cc4)cc3)c(C)c2c1OC(C)C | 5.15
C#Cc1cccc2oc(C(=O)Nc3ccc(-c4ccc(S(=O)(=O)N[C@H](C(=O)O)C(C)C)cc4)cc3)c(C)c12 | 6.23
CC(=O)Nc1cccc2oc(C(=O)Nc3ccc(-c4ccc(S(=O)(=O)N[C@H](C(=O)O)C(C)C)cc4)cc3)c(C)c12 | 5.42
Cc1c(C(=O)Nc2ccc(-c3ccc(S(=O)(=O)N[C@H](C(=O)O)C(C)C)cc3)cc2)oc2cccc(NS(=O)(=O)c3ccccc3)c12 | 5.22
Cc1c(C(=O)Nc2ccc(-c3ccc(S(=O)(=O)N[C@H](C(=O)O)C(C)C)cc3)nc2)oc2cccc(C#N)c12 | 5.55
COc1cccc2oc(C(=O)Nc3ccc(-c4ccc(S(=O)(=O)N[C@H](C(=O)O)C(C)C)cc4)cc3)c(C)c12 | 5.98

The record that follows has no pIC50 shown yet.
Sample Cc1c(C(=O)Nc2ccc(-c3ccc(S(=O)(=O)N[C@H](C(=O)O)C(C)C)cc3)cc2)oc2ccc3ccccc3c12 ; pIC50 observed: 7.22
